IC50 values for Integrase (Human immunodeficiency virus 1, UniProt Q7ZJM1), compiled from several publications.
observable: IC50 (nM)

Some compounds with recorded IC50:
Query block: Write down measured IC50 (Integrase (Human immunodeficiency virus 1, UniProt Q7ZJM1)) for this compound. COc1ccc(Cn2c(=O)c3c(=O)c4[nH]cc[nH]c4c(=O)c3c2=O)c(OC)c1
Result block: 427

Query block: Enter measured IC50, system Integrase (Human immunodeficiency virus 1, UniProt Q7ZJM1), for the compound shown: COc1ccc(Cn2c(=O)c3c(=O)c4[nH]cc[nH]c4c(=O)c3c2=O)cc1
Result block: 562

Query block: Enter IC50 (test system Integrase (Human immunodeficiency virus 1, UniProt Q7ZJM1)) for O=c1c2[nH]cc[nH]c2c(=O)c2c(=O)n(Cc3ccc(F)cc3)c(=O)c12
Result block: 417

[a] O=c1c2[nH]cc[nH]c2c(=O)c2c(=O)n(Cc3ccc4c(c3)OCO4)c(=O)c12
[b] CCCCC(C)/C=C(\C)C(=O)O[C@@H]1CC[C@H](C(=O)O)[C@@]2(C)CC(=C(C)C=O)C(=O)C=C12 (some centres undefined)
[c] CCOc1ccc(C(=C2C(=O)C(=O)c3ccccc3C2=O)c2c(O)c(O)c3ccccc3c2O)cc1OC
Query block: # sort list by recorded IC50, greatest to least Use the labels to give the requested order.
Result block: c, b, a
(c: 100000 nM, b: 3000 nM, a: 562 nM)

---

Endpoint summary: pIC50, system: Integrase (Human immunodeficiency virus 1), multiple sources combined.
pIC50: −log10 of the molar value.

Query block: Name the recorded pIC50 of the item O=C1C(=O)C(Sc2ccccc2)C(=O)c2ccccc21 (stereo unspecified) in your answer.
Result block: < 4.00

Continuing:
Query block: Using known records, supply pIC50 for O=C(C=Cc1ccccc1)CC(=O)C=Cc1ccccc1
Result block: < 4.00

Query block: Please supply the value of reported pIC50 for the item O=c1c2[nH]cc[nH]c2c(=O)c2c(=O)n(Cc3cccc(C(F)(F)F)c3)c(=O)c12
Result block: 6.37
